- System: SK-MEL-2
- procedure-details: NCI tumour cell line growth inhibition, 48 h
Active and inactive are the calls of the source. Cut-off read from the data, not from the text of the source: active = GI50 up to about 1.1 µM and inactive = higher.
readout-kind: GI50

Previously resolved entries follow.
INSERT INTO measurements (compound, endpoint_result) VALUES
  ('O=S(O)c1cc(Cl)c(O)c(Cl)c1', '> 100 µM (inactive)'),
  ('CC(=C(C(N)=O)C(N)=O)C1C=C(c2cccs2)CC(c2ccc(Cl)cc2)=C1O (stereo unspecified)', '> 100 µM (inactive)'),
  ('O=c1c2ccccc2nnn1-c1n[nH]c2ccccc12', '> 100 µM (inactive)');

Give recorded GI50 with SK-MEL-2 for the following compound: CCOC(=O)Cn1c(=O)c2nc(SC)sc2n(CC)c1=S
> 100 µM (inactive)

// same read-out, input: OC1=C(c2ccccc2)C2=NCCN2c2ccccc21
18.7 µM (inactive)

// same read-out, input: COc1ccc(C2C3CCCC(C3=O)C(c3ccc(OC)cc3)N2N=O)cc1 (stereo unspecified)
20.5 µM (inactive)

###

List of GI50 values.
- Test system: KM-20L2
- procedure-details: NCI tumour cell line growth inhibition, 48 h
The source made the active and inactive calls. Cut-off read from the data, not from the text of the source: active = GI50 up to about 1.1 µM and inactive = higher.

Requested read-out: GI50. Entry: Cc1cn2c(=O)c3ccccc3nc2s1
> 100 µM (inactive)

How about NCCSc1nc(N)c2ncn(C3OC(CO)C(O)C3O)c2n1 (stereo not given) ?
> 100 µM (inactive)

Try this compound next: O=S1(=O)NN=C(NCc2ccc(F)cc2)c2ccccc21
> 100 µM (inactive)

Request: Cc1cc(C)nc(NS(=O)(=O)c2ccc(Nc3c4ccccc4nc4c(C(=O)Nc5ccc(S(=O)(=O)Nc6cc(C)on6)cc5)cccc34)cc2)n1
21 µM (inactive)

###

The molecules listed here are annotated with their GI50.
- Tested on: UO-31
- procedure-details: NCI tumour cell line growth inhibition, 48 h
Calls of active or inactive are those of the source. No stated cut-off is given here; in the data, active = GI50 up to about 1.1 µM and inactive = higher.

Reference set, count: 2
INSERT INTO results (molecule, endpoint_result) VALUES
  ('C1COC(NC(C2CC2)C2CC2)=N1 [RILMENIDINE]', '> 100 µM (inactive)'),
  ('Cc1ccc(C)c2c1n1c(=O)n(C)c(=O)n21', '> 100 µM (inactive)');

Please give the measured GI50 for this molecule: CC(=O)Oc1ccccc1/C=C/C(=O)/C=C/c1ccccc1OC(C)=O
1.68 µM (inactive)

###

- Tested on: HOP-92
- procedure-details: NCI tumour cell line growth inhibition, 48 h
Active and inactive are the calls of the source. No stated cut-off is given here; in the data, active = GI50 up to about 1.1 µM and inactive = higher.
Answer with one of the outcomes given here: Yes = active, No = inactive

INSERT INTO assay_data (compound, assigned_category) VALUES
  ('C[C@]12CC[C@H]3[C@@H](CCC4=C[C@@H](OC5OCC(OC6OC(CO)C(O)C(O)C6O)C(O)C5O)CC[C@@]43C=O)[C@@]1(O)CCC2C1=CC(=O)OC1 (some centres not stated)', 'Yes'),
  ('CCCCOC(=O)C(=O)C(CC(C(=O)Cc1ccccc1)c1ccccc1)C(=O)C=C(C)C (configuration not stated)', 'No');

Answer briefly: the call reported for CCN1CCCCCCCCCC(=N/O)/C(=N\O)C1 in this assay.
No

Also Cc1cc(=O)oc2cc(OC(=O)Nc3ccccc3)ccc12 , if possible.
No

What do you have for C=CCCC(=O)CC(=O)OCc1ccccc1 ?
No

Subsequent entry: OCC12C=CC(C1)c1ccccc12 (configuration not stated)
No
